Molecular target: EGFR (form in the assay not stated) (human, UniProt P00533 25-645, limits assumed)
Assay: ELISA, NEM conjugate 10 nM
Reported endpoint: binding ratio vs parent P54AR4-83v2 (ratio)
Please state the figure in ratio; there is no need to write the unit.

Below: 2 binders and their reported binding ratio vs parent P54AR4-83v2.
P54AR4-83v2 Y78C, NEM conjugate (designed binder, NEM on Cys 78, His-tagged) LPAPKNLVVSEVTEDSARLSWDDPWAFYESFLIQYQESEKVGEAIVLTVPGSERSYDLTGLKPGTEYTVSIYGVHNVCKDTNMRGLPLSAIFTT: 0.31
P54AR4-83v2 K40C, NEM conjugate (designed binder, NEM on Cys 40, His-tagged) LPAPKNLVVSEVTEDSARLSWDDPWAFYESFLIQYQESECVGEAIVLTVPGSERSYDLTGLKPGTEYTVSIYGVHNVYKDTNMRGLPLSAIFTT: 0.88

// returns reported binding ratio vs parent P54AR4-83v2 for input P54AR4-83v2 V8C, NEM conjugate (designed binder, NEM on Cys 8, His-tagged) LPAPKNLCVSEVTEDSARLSWDDPWAFYESFLIQYQESEKVGEAIVLTVPGSERSYDLTGLKPGTEYTVSIYGVHNVYKDTNMRGLPLSAIFTT 0.96

// query: P54AR4-83v2 F31C, NEM conjugate (designed binder, NEM on Cys 31, His-tagged) LPAPKNLVVSEVTEDSARLSWDDPWAFYESCLIQYQESEKVGEAIVLTVPGSERSYDLTGLKPGTEYTVSIYGVHNVYKDTNMRGLPLSAIFTT 0.04
